system: Mycoplasmoides gallisepticum; test: Antimycoplasmal activity against Mycoplasma gallisepticum K514 without the extra addition of copper; assay type: functional
So I've got a bunch of compounds here, and I need their MIC values.

Look over these answered cases.
CC(=O)Nc1nc(-c2ccccn2)cc2ccccc12 ... > 25 µM
CC[C@H]1OC(=O)C[C@@H](O)[C@H](C)[C@@H](O[C@@H]2O[C@H](C)[C@@H](O[C@H]3C[C@@](C)(O)[C@@H](O)[C@H](C)O3)[C@H](N(C)C)[C@H]2O)[C@@H](CC=O)C[C@@H](C)C(=O)/C=C/C(C)=C/[C@@H]1CO[C@@H]1O[C@H](C)[C@@H](O)[C@@H](OC)[C@H]1OC [TYLOSIN] ... 0.1 µM

Ask: Given `CC(C)(C)C(=O)Nc1nc(-c2ccccn2)cc2ccccc12` , state its recorded MIC.
Result: > 25 µM

* * *

Record form. Attribute: MIC. Fill in for each entry.
system: Mycoplasmoides gallisepticum; test: Antimycoplasmal activity against Mycoplasma gallisepticum K514 with the extra addition of copper (40 uM); type: functional
Numbers only, in µM.

CC(C)C(=O)Nc1nc(-c2ccccn2)cc2ccccc12 ... 0.22
COc1cccc(C(=O)Nc2nc(-c3ccccn3)cc3ccccc23)c1 ... 0.18
O=C(Nc1nc(-c2ccccn2)cc2ccccc12)c1cccc(Cl)c1 ... 0.35
Cc1ccc(C(=O)Nc2nc(-c3ccccn3)cc3ccccc23)c(C)c1 ... 0.39
Cc1ccc(C(=O)Nc2nc(-c3ccccn3)cc3ccccc23)cc1C ... 0.39
Cc1cccc(C)c1C(=O)Nc1nc(-c2ccccn2)cc2ccccc12 ... 0.78
CCCCC(CC)C(=O)Nc1nc(-c2ccccn2)cc2ccccc12 (centres undefined) ... 0.36
O=C(Nc1nc(-c2ccccn2)cc2ccccc12)c1ccc(Cl)c(Cl)c1 ... 0.64

Consider the additional molecule presented here.
Ask: Consider the molecule shown here: CC[C@H]1OC(=O)C[C@@H](O)[C@H](C)[C@@H](O[C@@H]2O[C@H](C)[C@@H](O[C@H]3C[C@@](C)(O)[C@@H](O)[C@H](C)O3)[C@H](N(C)C)[C@H]2O)[C@@H](CC=O)C[C@@H](C)C(=O)/C=C/C(C)=C/[C@@H]1CO[C@@H]1O[C@H](C)[C@@H](O)[C@@H](OC)[C@H]1OC [TYLOSIN] What is its recorded MIC?
Result: 0.1

* * *

Kindly supply the reported MIC values for the records listed here.
test system: Mycoplasmoides gallisepticum; experiment: Antimycoplasmal activity against Mycoplasma gallisepticum K514 with the extra addition of copper (40 uM); format: functional
Answers are plain numbers, in µM.

Below, each entry is followed by its recorded MIC result.
Cc1cccc(C(=O)Nc2nc(-c3ccccn3)cc3ccccc23)c1 ... 0.09
Cc1ccc(C)c(C(=O)Nc2nc(-c3ccccn3)cc3ccccc23)c1 ... 0.39
CCCCCCCCCC(=O)Nc1nc(-c2ccccn2)cc2ccccc12 ... 0.34
O=C(Nc1nc(-c2ccccn2)cc2ccccc12)c1ccccc1 ... 0.1
CC(C)(C)C(=O)Nc1nc(-c2ccccn2)cc2ccccc12 ... 0.21

Next item in the queue.
Ask: # input compound: `CCC(=O)Nc1nc(-c2ccccn2)cc2ccccc12` ; wanted: its MIC
Result: 0.45

* * *

tested on: Mycoplasmoides gallisepticum; experiment: Antimycoplasmal activity against Mycoplasma gallisepticum K514 without the extra addition of copper; format: functional
REPORTED METRIC: MIC

Example entries and their recorded answers appear below.
CCC(=O)Nc1nc(-c2ccccn2)cc2ccccc12 ... > 25 µM
Cc1cc(C)cc(C(=O)Nc2nc(-c3ccccn3)cc3ccccc23)c1 ... > 100 µM
O=C(Nc1nc(-c2ccccn2)cc2ccccc12)c1ccccc1 ... 12.3 µM

List reported MIC for each of these compounds:
1. CC(C)C(=O)Nc1nc(-c2ccccn2)cc2ccccc12
2. Cc1cccc(C)c1C(=O)Nc1nc(-c2ccccn2)cc2ccccc12
3. Nc1nc(-c2ccccn2)cc2ccccc12
4. COc1ccc(C(=O)Nc2nc(-c3ccccn3)cc3ccccc23)cc1
5. O=C(Nc1nc(-c2ccccn2)cc2ccccc12)c1ccc(Cl)cc1
6. CCCCCCCCCC(=O)Nc1nc(-c2ccccn2)cc2ccccc12
7. Cc1ccc(C)c(C(=O)Nc2nc(-c3ccccn3)cc3ccccc23)c1
8. CCCCC(CC)C(=O)Nc1nc(-c2ccccn2)cc2ccccc12 (stereo not drawn)

Result:
1. > 25 µM
2. > 25 µM
3. 452 µM
4. > 160 µM
5. > 160 µM
6. > 170 µM
7. > 100 µM
8. > 170 µM

I need MIC for every entry listed below, if you could help.
1. O=C(Nc1nc(-c2ccccn2)cc2ccccc12)c1cccc(Cl)c1
2. O=C(Nc1nc(-c2ccccn2)cc2ccccc12)c1ccc(Cl)c(Cl)c1
3. Cc1ccc(C(=O)Nc2nc(-c3ccccn3)cc3ccccc23)cc1C
4. COc1cccc(C(=O)Nc2nc(-c3ccccn3)cc3ccccc23)c1
5. Cc1cccc(C(=O)Nc2nc(-c3ccccn3)cc3ccccc23)c1
6. Cc1ccc(C(=O)Nc2nc(-c3ccccn3)cc3ccccc23)cc1
7. Cc1ccc(C(=O)Nc2nc(-c3ccccn3)cc3ccccc23)c(C)c1

Result:
> 23 µM
> 160 µM
> 100 µM
> 23 µM
> 23 µM
> 160 µM
> 100 µM
